Molecular target: GPR39 (Homo sapiens, UniProt O43194)
Assay: Back-scattering interferometry (BSI) binding assay, HEK293s-hGPR39 membranes
Design: Full length human (AF034633), rat (DM091294) and mouse (BC085285) GPR39; expressed in transfected cells; host or cells: HEK293s (ATCC CRL-1573), pIRESneo3 vector, selected clones
Conditions: Zn^2+ binding; two site binding model; read-out: K D1 (high affinity site) ± SE
pKd: −log10 of the molar value.

CHEMICAL_SMILES: [Zn+2]
pKd: 6.28

* * *

Target: GPR39 (Homo sapiens)
Sequence (O43194 1-453): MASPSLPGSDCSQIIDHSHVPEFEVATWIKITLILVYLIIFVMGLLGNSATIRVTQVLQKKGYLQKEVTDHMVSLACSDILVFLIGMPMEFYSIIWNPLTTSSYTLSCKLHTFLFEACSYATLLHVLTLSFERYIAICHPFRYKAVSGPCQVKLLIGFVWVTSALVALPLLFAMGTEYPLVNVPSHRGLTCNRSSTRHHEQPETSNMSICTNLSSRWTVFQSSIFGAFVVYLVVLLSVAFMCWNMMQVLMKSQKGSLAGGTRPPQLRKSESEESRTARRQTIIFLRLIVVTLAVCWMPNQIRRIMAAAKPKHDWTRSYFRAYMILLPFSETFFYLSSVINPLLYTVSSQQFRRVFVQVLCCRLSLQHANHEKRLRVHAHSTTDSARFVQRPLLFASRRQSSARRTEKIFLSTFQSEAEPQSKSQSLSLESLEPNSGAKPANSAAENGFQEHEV
Assay: cAMP assay (HTRF), HEK293s-hGPR39 cells
Type: cell-based
Set-up: Full length human (AF034633), rat (DM091294) and mouse (BC085285) GPR39; expressed in transfected cells; host or cells: HEK293s (ATCC CRL-1573), pIRESneo3 vector, selected clones
Conditions: absence (w/o) of Zn^2+; read-out: EC50
pEC50: −log10 of the molar value.
Form field: pEC50 (one value per entry).
METRIC_NAME: pEC50

COMPOUND: Cc1nc2c(C(=O)O)cnn2c(O)c1Cc1ccc(Cl)cc1 [AZ4237]
REPORTED_VALUE: < 4.48

COMPOUND: Cc1nc(-c2nc3c(c(=O)[nH]2)CN(C(=O)c2cccc(Cl)c2F)CC3)cs1 [AZ7914]
REPORTED_VALUE: < 4.48

COMPOUND: N#Cc1ccc(OCCn2ccnc2)c(OCCn2ccnc2)c1 [AZ1395]
REPORTED_VALUE: < 4.48
